Origin of values: patent US9855270B2

# Test system: MCF-7 cells stably expressing EF1 HA-ER-α Y537N
# PROTOCOL: cells
# Type: cell-based
# CONDITION: Homo sapiens, MCF7, read-out: Potency (EC50; nM), EF1 HA-ER-α Y537N; Antagonist Mode; +E2
Exercise: state measured EC50 for each of the molecules provided.
The answer is to be given in nM; state only the numeric part.

Kindly note the recorded EC50 for C[C@]12CC[C@@H]3c4ccc(O)cc4C[C@@H](CCCCCCCCC[S+]([O-])CCCC(F)(F)C(F)(F)F)[C@H]3[C@@H]1CC[C@@H]2O (some centres unmarked) , which is 12.4

Sample CC1=C(c2cccc(O)c2)[C@H](c2ccc(OCCN3CC(CF)C3)cc2)Oc2ccc(O)cc21 ; EC50 observed: 45.5

----------
# Test system: MCF-7 cells transduced with an empty EF1 lentiviral vector (negative control)
# PROTOCOL: MCF-7 Stable Cell Line Viability (EF1 HA-ER-α series)
# Type: cell-based
# CONDITION: Homo sapiens, MCF7, Receptor None (empty EF1 lentiviral vector); Agonist Mode; −E2; read-out: Potency (EC50; nM)
ENDPOINT: EC50 (nM)
Express it in nM; write the number only.

Assay MCF-7 cells transduced with an empty EF1 lentiviral vector (negative control), sample C[C@]12CC[C@@H]3c4ccc(O)cc4CC[C@H]3[C@@H]1CC[C@@H]2O , EC50 read: 0.02

Param item: C[C@]12CC[C@@H]3c4ccc(O)cc4C[C@@H](CCCCCCCCC[S+]([O-])CCCC(F)(F)C(F)(F)F)[C@H]3[C@@H]1CC[C@@H]2O (stereo partly drawn) ; param system: MCF-7 cells transduced with an empty EF1 lentiviral vector (negative control); output EC50: 0.178

For CC/C(=C(/c1ccc(/C=C/C(=O)O)cc1)c1ccc2[nH]ncc2c1)c1ccc(F)cc1Cl on MCF-7 cells transduced with an empty EF1 lentiviral vector (negative control), measured EC50 was 0.828

----------
# System: MCF-7 cells stably expressing UbC HA-ER-α L536R; note: test concentration or dose not given here
# PROTOCOL: cells
# Type: cell-based
# CONDITION: UbC HA-ER-α L536R; Antagonist Mode; +E2; 5-Day Incubation
For each entry below, report its Percent inhibition compared to vehicle value.
Please respond with the number in % and leave the unit unwritten.

Log: MCF-7 cells stably expressing UbC HA-ER-α L536R, molecule C[C@]12CC[C@@H]3c4ccc(O)cc4C[C@@H](CCCCCCCCC[S+]([O-])CCCC(F)(F)C(F)(F)F)[C@H]3[C@@H]1CC[C@@H]2O (stereo partly shown) [Fulvestrant] , Percent inhibition compared to vehicle = 71

Entry CC1=C(c2cccc(O)c2)[C@H](c2ccc(OCCN3CC(CF)C3)cc2)Oc2ccc(O)cc21 [Compound 4-23] under MCF-7 cells stably expressing UbC HA-ER-α L536R had Percent inhibition compared to vehicle of 71

Observed Percent inhibition compared to vehicle on MCF-7 cells stably expressing UbC HA-ER-α L536R, entry CC/C(=C(/c1ccc(/C=C/C(=O)O)cc1)c1ccc2[nH]ncc2c1)c1ccc(F)cc1Cl [Compound 1-3] , equals 71

Note to self: Percent inhibition compared to vehicle of CCC(=C(c1ccc(O)cc1)c1ccc(OCCN(C)C)cc1)c1ccccc1 [4-Hydroxytamoxifen] with MCF-7 cells stably expressing UbC HA-ER-α L536R was 61
